- System: MCF7 breast
- protocol.description: NCI-60 one-dose screen, 48 h
- measurement.context: 10 µM unless noted
The panel holds about 83,000 compounds, 20% with a hit somewhere; the sample as a whole holds those more often. Active and inactive are the calls of the source. The calls were made as follows: active = growth percent below 10; inactive = the rest.
Possible outcomes: Yes = active, No = inactive

INSERT INTO assay_data (compound, assay_target, group_label) VALUES
  ('Fc1ccc(-c2cn3c(nc4ccccc43)c(-c3ccccc3)n2)cc1', 'MCF7 breast', 'No'),
  ('Cc1ccc(-c2csc(NC(=O)CSc3nc(-c4ccccc4)cc(=O)[nH]3)n2)cc1', 'MCF7 breast', 'No'),
  ('COc1ccc2nc(-c3ccc(-c4noc(-c5cc(OC)c(OC)c(OC)c5)n4)cc3)[nH]c2c1', 'MCF7 breast', 'No'),
  ('CCOC(=O)c1cc(C(=O)c2cc(OC)cc(OC)c2)n2ccc3ccccc3c12', 'MCF7 breast', 'No'),
  ('COc1ccc(/C=C2\Oc3cc(OCCCCCN4CCCCC4)ccc3C2=O)cc1OC', 'MCF7 breast', 'No'),
  ('Cc1cccc(NC(=O)Nc2ccc(-c3ccc4c(c3)NC(=O)/C4=C\c3ccc[nH]3)cc2)c1', 'MCF7 breast', 'No'),
  ('COc1ccc(/C=C/C(=O)Nc2cc(/C=C\c3cc(OC)c(OC)c(OC)c3)cc(OC)c2OC)cc1OC', 'MCF7 breast', 'No'),
  ('CC(C)N1C(=O)S/C(=C2/SC(=O)N(C(C)C)C2=O)C1=O', 'MCF7 breast', 'No'),
  ('COc1cc2c(-c3cc4c(cc3CNCCc3ccc5c(c3)OCO5)OCO4)cccc2c(OC)c1O', 'MCF7 breast', 'No'),
  ('c1ccc(-c2cn3c(ccc4ccccc43)n2)cc1', 'MCF7 breast', 'No'),
  ('CN1CCN(c2ccc(NC3=C(Cl)C(=O)c4ncccc4C3=O)cc2C(F)(F)F)CC1', 'MCF7 breast', 'Yes'),
  ('N#C/C(=C\c1ccc([N+](=O)[O-])s1)c1nc2cc(Cl)ccc2s1', 'MCF7 breast', 'Yes'),
  ('Cn1c(-c2c(N)n(CCCN3CCOCC3)c3nc(C#N)c(C#N)nc23)nc2ccccc21', 'MCF7 breast', 'No'),
  ('CC(C)c1ccc(Nc2ccc3c(OCCCN4CCN(C)CC4)cccc3n2)cc1', 'MCF7 breast', 'No'),
  ('O=C(CCN1CCCC1)Nc1ccc2c(Nc3ccc(Br)cc3)c3ccccc3nc2c1', 'MCF7 breast', 'Yes'),
  ('COc1ccccc1NS(=O)(=O)c1cccc(C(=O)Nc2ccc(Br)cc2)c1', 'MCF7 breast', 'No'),
  ('OCc1cnccc1NCCCCOc1ccc(Oc2ccccc2)cc1', 'MCF7 breast', 'No'),
  ('O=[N+]([O-])c1cc(Br)c2cccc3c2c1CC3', 'MCF7 breast', 'No'),
  ('COc1cccc(-c2nc3occn3c2-c2ccnc(NCCNS(=O)(=O)c3ccc(C(F)(F)F)cc3)n2)c1', 'MCF7 breast', 'No'),
  ('NC(=S)N1N=C(c2ccccc2)CC1c1cn(-c2ccccc2)nc1-c1ccc(OCc2ccccc2)cc1 (configuration not stated)', 'MCF7 breast', 'No'),
  ('N#CC1=C(N)Oc2c(ccc3ccccc23)C1c1ccccc1Cl (configuration not stated)', 'MCF7 breast', 'No'),
  ('COc1cc2nc(-c3ccc(C(F)(F)F)cc3)cc(OCCN3CCCCC3)c2cc1OC', 'MCF7 breast', 'No'),
  ('COc1ccc(CCn2cncc2-c2c[nH]c3ccccc23)cc1', 'MCF7 breast', 'No'),
  ('O=C1/C=C/[C@@H](O)[C@@H]2C[C@@H](O)C[C@H]2/C=C/CCC[C@H](CCc2cccc3ccccc23)O1', 'MCF7 breast', 'Yes'),
  ('Nc1c(C(=O)Nc2ccnc3ccccc23)sc2nc3c(cc12)CN(Cc1ccccc1)CC3', 'MCF7 breast', 'No'),
  ('O=C(Cn1c[n+](CC(=O)c2ccc(-c3ccccc3)cc2)c2ccccc21)Nc1cccc2cccnc12', 'MCF7 breast', 'No'),
  ('C=C1C(=O)O[C@H]2[C@H]1CC/C(COC(=O)NCc1c[nH]c3ccc(Cl)cc13)=C\CC[C@@]1(C)O[C@@H]21', 'MCF7 breast', 'No'),
  ('COc1cccc(-c2nc3occn3c2-c2ccnc(NCCNS(=O)(=O)c3cccc4ccccc34)n2)c1', 'MCF7 breast', 'No'),
  ('c1ccc2cc(Cn3c(-c4cccc5ccccc45)[n+](Cc4ccc5ccccc5c4)c4c5ccccc5c5ccccc5c43)ccc2c1', 'MCF7 breast', 'Yes'),
  ('C=C(C)[C@@H]1CC[C@]2(C(=O)N[C@@H](Cc3ccccc3)C(=O)OC)CC[C@]3(C)[C@H](CC[C@@H]4[C@@]5(C)CCC(=O)C(C)(C)[C@@H]5CC[C@]43C)[C@@H]12', 'MCF7 breast', 'No'),
  ('CCCCCCCCCCCCCCCC[N+]1(C)CCN(SN2CC[N+](C)(CCCCCCCCCCCCCCCC)CC2)CC1', 'MCF7 breast', 'No'),
  ('COc1ccc(NC(=O)c2cc(NCc3cc(O)ccc3O)ccc2O)cc1', 'MCF7 breast', 'No'),
  ('N#CC(C(=O)/C(=N/NC(=O)c1ccccc1O)C(C#N)c1ccccc1)c1ccccc1 (configuration not stated)', 'MCF7 breast', 'No'),
  ('CCN1CCN(CCNc2nccc(-c3c(-c4cccc(OC)c4)nc4occn34)n2)S1(=O)=O', 'MCF7 breast', 'No'),
  ('N/C(=N\C(N)=N\c1nc2ccccc2s1)c1cnccn1', 'MCF7 breast', 'No'),
  ('O=C(CNCCN1CCOCC1)N1c2cccc3cccc(c23)N(C(=O)CNCCN2CCOCC2)C1c1cn(-c2ccccc2)nc1-c1cccc([N+](=O)[O-])c1', 'MCF7 breast', 'No'),
  ('C=C1C(=O)O[C@H]2[C@H]1CC/C(COC(=O)NCC(C)c1ccc(CC(C)C)cc1)=C\CC[C@@]1(C)O[C@@H]21 (some centres not stated)', 'MCF7 breast', 'No');
